Please respond with reported Bottom (RLU) for every item in the list.
Target: T1, TIGIT on TIGIT-over expressing NFAT-Luc/Jurkat effector cells (GenScript reporter cell line) (UniProt Q495A1 22-244, limits assumed)
T1 sequence (looked up): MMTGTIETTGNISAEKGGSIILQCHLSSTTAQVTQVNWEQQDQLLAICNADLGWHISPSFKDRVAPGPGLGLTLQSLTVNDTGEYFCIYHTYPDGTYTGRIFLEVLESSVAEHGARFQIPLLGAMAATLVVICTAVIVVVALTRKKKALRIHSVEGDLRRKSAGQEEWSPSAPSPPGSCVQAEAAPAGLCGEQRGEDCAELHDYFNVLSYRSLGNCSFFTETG
Assay: cell-based or functional assay
Provide a numeric answer, followed by its unit.

1) huTIGIT-19-2 (antibody, human IgG1, kappa, V domains shown, Humanized IgG; also called 19VH4.M9 + 19VL1.M7) VH: QVQLVQSGAEVKKPGASVKVSCKASGYTFTRYSMYWVRQAPGQGLEWIAFIDAYSGGSTYNQRFRGKATLTVDTSISTAYMELSRLRSDDTAVYYCARGGDYGWYLGVWGQGTLVTVSS VL: DIQMTQSPSSLSASVGDRVTITCRASQSIYSYLSWYQQKPGKAPKLLIYNAKSLPSGVPSRFSGSGSGTDFTLTISSLQPEDFATYYCQHHYGNPLTFGQGTKVEIKR
55200 RLU
2) huTIGIT-19-3 (antibody, human IgG1, kappa, V domains shown, Humanized IgG; also called 19VH4.M10 + 19VL1.M4) VH: QVQLVQSGAEVKKPGASVKVSCKASGYTFTRYSMYWVRQAPGQGLEWIAFIDAYSGGSTYAQKFQGKATLTVDTSISTAYMELSRLRSDDTAVYYCARGGDYGWYLGVWGQGTLVTVSS VL: DIQMTQSPSSLSASVGDRVTITCRPSENIYTYLSWYQQKPGKAPKLLIYNAKSLPSGVPSRFSGSGSGTDFTLTISSLQPEDFATYYCQHHYGNPLTFGQGTKVEIKR
53700 RLU

Now for a further binder.
Entry huTIGIT-19-4 (antibody, human IgG1, kappa, V domains shown, Humanized IgG; also called 19VH4.M10 + 19VL1.M7) VH: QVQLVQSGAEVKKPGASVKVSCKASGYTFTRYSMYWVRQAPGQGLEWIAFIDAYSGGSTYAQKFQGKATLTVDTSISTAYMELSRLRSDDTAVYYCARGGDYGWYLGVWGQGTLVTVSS VL: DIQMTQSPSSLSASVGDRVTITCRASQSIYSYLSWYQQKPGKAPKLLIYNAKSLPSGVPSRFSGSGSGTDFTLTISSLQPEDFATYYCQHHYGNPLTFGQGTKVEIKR ; Bottom (RLU) = 51300 RLU

Values compiled from patent US20260139048A1.
